// data source = PubChem BioAssay AID1159580

assayOverview: chemical genetic growth profiling, strain panel (AID 1159580);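 further: tested at 20 µM; growth read once vehicle control cultures reached saturation at 30 °C; 1 = growth at the plate median or of vehicle wells; lower values mean less growth of the strain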
appliedConditions: S. cerevisiae deletion strains, growth OD, locus YAL026C, strain drs2, stronger effect = lower value
Screen size: about 5,500 compounds; about 2,000 (36%) were called active. Roughly 18% stayed inconclusive and do not appear here. The list shows a part of the results.
The label is label 1 for normalized growth below 1 and label 0 for normalized growth equal to or exceeding 1.

* COc1ccc(-c2coc3cc(O)ccc3c2=O)cc1 | label 1
* C[C@H]1COc2c(N3CCN(C)CC3)c(F)cc3c(=O)c(C(=O)O)cn1c23 | label 0
* COc1ccc2c(c1)OC1(O)COc3cc(OC)c(OC)cc3C1=C2 (stereo not drawn) | label 1
* COc1ccc(CN(CCN(C)C)c2ccccn2)cc1 | label 0
* CCN(CC)C(=O)N1CCN(C)CC1 | label 1
* Oc1ccc2c(c1)O[C@H](c1ccc(O)c(O)c1)[C@@H](O)C2 | label 0

In the following, a different compound is considered.
Bench note: check whether COc1cc([C@@H]2c3cc4c(cc3C(OC3O[C@@H]5COC(C)O[C@H]5[C@H](O)[C@H]3O)C3COC(=O)[C@@H]32)OCO4)cc(OC)c1O (stereo partly drawn) shows normalized growth below 1
label 0

---

assayOverview: chemical genetic growth profiling, strain panel (AID 1159580);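 further: tested at 20 µM; growth read once vehicle control cultures reached saturation at 30 °C; 1 = growth at the plate median or of vehicle wells; lower values mean less growth of the strain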
appliedConditions: S. cerevisiae deletion strains, growth OD, locus YGR229C, strain SMI1
The whole screen tested about 5,500 compounds, of which about 2,000 (36%) were called active. Roughly 18% stayed inconclusive and do not appear here. Rule as the data show it: active = normalized growth mostly below about 0.91 (no sharp cut-off); inconclusive = no clear call, values can overlap the other calls; inactive = mostly above about 0.92. The list shows a part of the results.
API: response.call in active, inactive

Previously resolved entries follow.
- COC(=O)CCCCCCCC(=O)Nc1ccc(Cl)cc1: inactive
- O=[N+]([O-])c1ccc(S(=O)(=O)N2CCCCC2)cc1: inactive
- CC(=O)c1c(O)c(C)c(O)c(Cc2c(O)c3c(c(C(=O)/C=C/c4ccccc4)c2O)OC(C)(C)C=C3)c1O: inactive
- O=C(CSc1ccc(Cl)cc1)Nc1ccc(F)cc1: active

// outcome(item) with item = N[C@@H](Cc1ccc(N(CCCl)CCCl)cc1)C(=O)O
inactive

// outcome(item) with item = O=[N+]([O-])c1ccc(N2CCCCC2)nc1N1CCCCC1
inactive

---

assayOverview: chemical genetic growth profiling, strain panel (AID 1159580);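 further: tested at 20 µM; growth read once vehicle control cultures reached saturation at 30 °C; 1 = growth at the plate median or of vehicle wells; lower values mean less growth of the strain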
appliedConditions: S. cerevisiae deletion strains, growth OD, locus YHR079C, strain IRE1, stronger effect = lower value
Out of some 5,500 compounds screened, about 2,000 (36%) were called active. Inconclusive results (about 18%) are left out. The list shows a part of the results.
recordedMetric: normalized growth
Respond using a number only.

• CC(=O)O[C@H]1C[C@@H](OC(C)=O)C(C)(C)C2CC(=O)[C@]3(C)C(CC[C@@]4(C)[C@H](C(=O)O)OC(=O)C5OC543)[C@]21C (stereo not given in full) = 1.03
• Cn1c(=O)c2c(ncn2CC(O)CO)n(C)c1=O (stereo not given) = 1.08
• CCCCNC(=O)NS(=O)(=O)c1ccc(C)cc1 = 0.964
• O=C1NCC2(CCN(CCc3ccccc3)CC2)O1 = 0.979
• CC[C@@]1(O)C[C@H](O[C@H]2C[C@H](N(C)C)[C@H](O)[C@H](C)O2)c2c(cc3c(c2O)C(=O)c2c(O)ccc(O)c2C3=O)[C@H]1C(=O)OC = 0.987
• COc1cccc(C2CCN(C(=O)c3cccc4ccccc34)CC2)c1 = 0.967

Please give the documented normalized growth of CCC[C@H](N[C@@H](C)C(=O)N1[C@H](C(=O)O)C[C@@H]2CCCC[C@@H]21)C(=O)OCC
0.993

Please give the documented normalized growth of Oc1cc(O)c2c(c1)O[C@H](c1ccc(O)c(O)c1)[C@@H](O)C2
0.974

Please give the documented normalized growth of C=C[C@@](C)(O)CCC1C(=C)C[C@H](O)C2C(C)(C)CCCC12C (stereo not given in full)
0.955

Please give the documented normalized growth of CN1CCC(OC(c2ccccc2)c2ccccc2)CC1
1.02

Please give the documented normalized growth of NCCc1cnc[nH]1
1.03

Please give the documented normalized growth of CC(=O)S[C@@H]1CC2=CC(=O)CC[C@]2(C)[C@H]2CC[C@@]3(C)[C@@H](CC[C@@]34CCC(=O)O4)C12 (stereo not given in full)
1.08

Please give the documented normalized growth of CC(=O)c1ccc(Cl)c(NS(=O)(=O)c2cc(Cl)c(Cl)cc2Cl)c1
0.697

Please give the documented normalized growth of Cc1ccc(S(=O)(=O)NC(=O)NN2CCCCCC2)cc1
1.02

Please give the documented normalized growth of c1ccc2c(c1)CCCC2C1=NCCN1 (stereo not given)
0.976

Please give the documented normalized growth of Oc1cc(O)c2c(c1)O[C@H](c1cc(O)c(O)c(O)c1)[C@H](O)C2
1.01
